Can you tell me IC50 for the items I'm about to list?
Test system: OVCAR-3
Assay: Inhibitory activity against OVCAR-3 cell line
Type: functional, cell-based
Conditions: Homo sapiens
Report the value in nM with no unit label.

// query Report IC50 under test system OVCAR-3 for `COc1c2ccccc2c2c3c(cccc13)C(=O)N(CCN(C)C)C2=O` .
// result 130

// query Return reported IC50 for target or system OVCAR-3, item `CCOc1c2ccccc2c2c3c(cccc13)C(=O)N(CCN(C)C)C2=O` .
// result 175

// query Consider the molecule `CC(=O)Nc1c2ccccc2c2c3c(cccc13)C(=O)N(CCN(C)C)C2=O` tested on OVCAR-3; state its IC50.
// result 730

// query # lookup: OVCAR-3 IC50, key = `CN(C)CCNc1c2ccccc2c2c3c(cccc13)C(=O)N(CCN(C)C)C2=O`
// result 2880

// query Lab note: record IC50 of `COc1ccc2c3c(c4ccccc4cc13)C(=O)N(CCN(C)C)C2=O` tested on OVCAR-3.
// result 1.3

Cited source: ChEMBL document CHEMBL1129062
